Cited source for all entries: ChEMBL document CHEMBL3988442

- test_system: Polyketide synthase Pks13 (Mycobacterium tuberculosis (strain ATCC 25618 / H37Rv))
- assay_overview: Mycobacterium tuberculosis Polyketide synthase 13 Thioesterase (PKS13)
- Type: functional
- Design: scale not given: in the data most compounds retested in dose-response had high values
- test_context: 30 µM
Among all 67,000 compounds or so, about 300 (0.45%) showed an effect of 50% or more. For the sample, strong results were picked, then their nearest neighbours and some compounds at random.
measured_quantity: Percent Effect (%)
// note: answer is a bare numeric in %

# count of solved cases: 2
1. O=C(NCC1CC1)[C@@H]1CCO[C@@H]2CCN(Cc3ccc(F)cc3)C[C@H]21; -0.289
2. Cc1ccoc1C(=O)N1C[C@@H]2COC[C@]2(CNS(C)(=O)=O)C1; -15.4

Query block: Please look at this compound and report its Percent Effect: Cc1ncc(C(=O)OCC2CCN(c3ccccc3)C2)s1 (stereo not given)
Result block: 39.2

Query block: Read off the recorded Percent Effect for c1ccc2c(c1)CCN(c1ncnc3sc4c(c13)CCNC4)C2
Result block: -23.8

Query block: Supply Percent Effect value. Item: COC[C@@]12CCO[C@@H]1CCN(C(=O)COc1ccccc1OC)C2
Result block: -28.6

Query block: Supply measured Percent Effect of CC(=O)NC(C)C(=O)Nc1ccc(OCc2cccc(F)c2)cc1C (stereo not given) in your reply.
Result block: -35.8

Query block: Tell me measured Percent Effect for COC(=O)C(C)(C)NC(=O)c1cc2sc(N(C)C)nc2s1 please.
Result block: 52.3

Query block: Please look at this compound and report its Percent Effect: Cc1cc(CN(C)C(=O)c2ccc(N(C)C)nc2)no1
Result block: -10.8

Query block: For Cc1nc(CO[C@H]2CN(Cc3ccccn3)[C@@H]3CCCO[C@H]23)cs1 , write its Percent Effect.
Result block: 1.71
